target: AChE in SH-SY5Y spheroids (Homo sapiens); test: cell-based; conditions: potency (IC50), SH-SY5Y spheroids (48 h)
IC50: recorded values
Lab book: enter the figure in µM, no units written.

The following compounds have reported results that may help.
structureNotation	displayUnit	IC50
CCOP(=S)(OCC)Oc1cnc2ccccc2n1	µM	46.2
CNC(=O)ON=C(CSC)C(C)(C)C	µM	3.46

# ---- query compound ----
Entry under review: CC/N=c1\cc2oc3cc(NCC)c(C)cc3c(-c3ccccc3C(=O)OCC)c-2cc1C . Reported IC50?
9.25

###

molecular target: recombinant human AChE (Homo sapiens, UniProt P22303); assay: biochemical; conditions: potency (IC50), Enzyme with microsomes
Sequence (P22303 32-614): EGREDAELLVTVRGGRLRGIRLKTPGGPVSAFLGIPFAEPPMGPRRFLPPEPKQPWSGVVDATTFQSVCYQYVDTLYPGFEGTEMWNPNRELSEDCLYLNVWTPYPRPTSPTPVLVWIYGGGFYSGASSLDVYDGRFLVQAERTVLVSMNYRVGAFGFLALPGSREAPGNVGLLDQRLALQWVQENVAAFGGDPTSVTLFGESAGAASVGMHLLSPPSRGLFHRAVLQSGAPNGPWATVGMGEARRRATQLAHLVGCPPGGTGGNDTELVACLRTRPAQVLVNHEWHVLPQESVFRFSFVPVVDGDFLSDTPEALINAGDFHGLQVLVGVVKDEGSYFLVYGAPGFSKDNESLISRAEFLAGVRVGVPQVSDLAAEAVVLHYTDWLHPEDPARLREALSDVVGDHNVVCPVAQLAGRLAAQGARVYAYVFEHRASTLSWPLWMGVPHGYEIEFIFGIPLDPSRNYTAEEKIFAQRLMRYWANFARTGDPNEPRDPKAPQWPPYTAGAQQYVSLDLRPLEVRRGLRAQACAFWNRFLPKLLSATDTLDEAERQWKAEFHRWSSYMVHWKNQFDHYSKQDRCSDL
Counter-ions that a name gives are not always drawn.
IC50: recorded values
Lab book: enter the figure in µM, no units written.

The following molecules have reported results that may help.
molecule	measuredQuantity	displayUnit	reportedResult
O=C(c1ccc(OCCN2CCCCC2)cc1)c1c(-c2ccc(O)cc2)sc2cc(O)ccc12 [Raloxifene hydrochloride, reference compound]	IC50	µM	3.42
CCCSP(=O)(OCC)Oc1ccc(Br)cc1Cl (stereo not drawn) [Profenofos]	IC50	µM	3.43

Entry under review: CCOP(=S)(OCC)SCSc1ccc(Cl)cc1 [Carbophenothion] . Reported IC50?
3.74

###

IC50: recorded values
molecular target: AChE in SH-SY5Y spheroids (Homo sapiens, UniProt P22303); experiment: cell-based; conditions: potency (IC50), SH-SY5Y spheroids (48 h)
Sequence (P22303 32-614): as above
Counter-ions that a name gives are not always drawn.

The following molecules have reported results that may help.
molecule	IC50
CCN1CCC2(CC1)COc1cc3c(cc12)N(C(=O)c1ccc(-c2ccc(-c4nnc(C)o4)cc2C)cc1)CC3.Cl [SB236057A]	25.9 µM
COP(=S)(Oc1cc(Cl)c(Br)cc1Cl)c1ccccc1 (centres unmarked)	44.6 µM
CCOP(=S)(OCC)SCSC(C)(C)C	35.4 µM

Entry under review: CCOC(=O)C(SP(=S)(OC)OC)c1ccccc1 (centres unmarked) [Phenthoate] . Reported IC50?
20.4 µM

Entry under review: [H]/N=C(\N/C(=N/[H])NCCCCCCNC(=N)NC(=N)Nc1ccc(Cl)cc1)Nc1ccc(Cl)cc1 [Chlorhexidine diacetate, reference compound] . Reported IC50?
41 µM

Entry under review: Cl.Clc1cc(Cl)c2c(c1)N=C1CCCCCN1C2 . Reported IC50?
0.85 µM

Entry under review: CN1C(=O)COc2c(C(=O)NC3CN4CCC3CC4)cc(Cl)cc21 (centres unmarked) [Azasetron hydrochloride, reference compound] . Reported IC50?
6.85 µM

Entry under review: Cc1c(Cl)c(=O)oc2cc(OP(=O)(OCCCl)OCCCl)ccc12 . Reported IC50?
1.12 µM

###

CC-v2 (curve classes): recorded values
target: recombinant human AChE (Homo sapiens, UniProt P22303); test: biochemical
Counter-ions that a name gives are not always drawn.

molecule	assayedSystem	CC-v2 (curve classes)
CCN1CCC2(CC1)COc1cc3c(cc12)N(C(=O)c1ccc(-c2ccc(-c4nnc(C)o4)cc2C)cc1)CC3.Cl [SB236057A]	recombinant human AChE (Homo sapiens, UniProt P22303)	-2.1
CCOC(=O)COc1ccc2c(C)c(CCN(CC)CC)c(=O)oc2c1Cl.Cl [Cloricromen hydrochloride]	recombinant human AChE (Homo sapiens, UniProt P22303)	-2.1
CNC(=O)Oc1cccc2c1OC(C)(C)O2	recombinant human AChE (Homo sapiens, UniProt P22303)	-1.1
O=C(O)/C=C\C(=O)O.O=C(O)/C=C\C(=O)O.c1cc(CN2CCCCC2)cc(OCCCNc2nc3ccccc3s2)c1 [Zolantidine dimaleate]	recombinant human AChE (Homo sapiens, UniProt P22303)	-2.1
COc1ccc(C(=O)NCc2ccc(OCCN(C)C)cc2)cc1OC.Cl [Itopride hydrochloride, reference compound]	recombinant human AChE (Homo sapiens, UniProt P22303)	-2.2
COP(N)(=O)SC (stereo not drawn)	recombinant human AChE (Homo sapiens, UniProt P22303)	-2.1
COc1cc2c(N3CCN(C(=O)Nc4ccc(OC(C)C)cc4)CC3)ncnc2cc1OCCCN1CCCCC1 [Tandutinib, reference compound]	recombinant human AChE (Homo sapiens, UniProt P22303)	-2.1
Cl.O=C(c1ccc(F)cc1)C1CCN(CCn2c(=S)[nH]c3ccccc3c2=O)CC1 [Altanserin hydrochloride]	recombinant human AChE (Homo sapiens, UniProt P22303)	4

Entry under review: CCCCN(CCCC)SN(C)C(=O)Oc1cccc2c1OC(C)(C)C2 . Reported CC-v2 (curve classes)?
-1.1

Entry under review: CCOP(=S)(OCC)SCSc1ccc(Cl)cc1 . Reported CC-v2 (curve classes)?
-2.2

Entry under review: CCCSP(=O)(OCC)Oc1ccc(Br)cc1Cl (stereo not drawn) . Reported CC-v2 (curve classes)?
-1.1

Entry under review: CCCN[C@H]1CCc2nc(N)sc2C1 [Pramipexole dihydrochloride monohydrate] . Reported CC-v2 (curve classes)?
4

Entry under review: Cc1cc(N)c2cc(NC(=O)Nc3ccc4nc(C)cc(N)c4c3)ccc2n1.Cl.Cl [Aminoquinuride dihydrochloride] . Reported CC-v2 (curve classes)?
4

Entry under review: COP(=O)(OC)Oc1ccc([N+](=O)[O-])cc1 . Reported CC-v2 (curve classes)?
-1.1

Entry under review: O=C(c1ccc(OCCN2CCCCC2)cc1)c1c(-c2ccc(O)cc2)sc2cc(O)ccc12 [Raloxifene hydrochloride, reference compound] . Reported CC-v2 (curve classes)?
-1.1

Entry under review: CNP(=O)(OC)Oc1ccc(C(C)(C)C)cc1Cl (stereo not drawn) [Crufomate] . Reported CC-v2 (curve classes)?
-2.2

###

CC-v2 (curve classes): recorded values
molecular target: AChE in SH-SY5Y cells (Homo sapiens); assay: cell-based
Sequence (P22303 32-614): as above
Form rule: numeric answer, no unit written next to it.

Entry under review: O=C(O)/C=C/C(=O)O.O=C1c2ccccc2C(=O)N1CCc1noc(-c2ccc(CN3CCCCCC3)s2)n1 . Reported CC-v2 (curve classes)?
-1.1

Entry under review: CCOP(=S)(OCC)Oc1nc(Cl)c(Cl)cc1Cl [Chlorpyrifos, reference compound] . Reported CC-v2 (curve classes)?
-2.1

Entry under review: CN1CCc2cc(Cl)c(O)cc2[C@H]2c3ccccc3CC[C@@H]21 [Ecopipam, reference compound] . Reported CC-v2 (curve classes)?
-2.2

Entry under review: CCOP(=O)(OCC)Oc1cc(C)nc(C(C)C)n1 . Reported CC-v2 (curve classes)?
-1.1

###

target: UniProt:P22303; test: cell-based; conditions: potency (IC50), SH-SY5Y spheroids (24 h)
Counter-ions that a name gives are not always drawn.
measuredQuantity: IC50 (µM)
Lab book: enter the figure in µM, no units written.

The following compounds have reported results that may help.
compound	displayUnit	reportedResult
Cc1ccc2c(n1)Oc1ccc(C(C)C(=O)OCC(=O)N(C)C)cc1C2 (stereo not shown) [Mepranoprofen arbamel, reference compound]	µM	7.46
CCOC(=O)CCN(SN(C)C(=O)Oc1cccc2c1OC(C)(C)C2)C(C)C	µM	1.76

Entry under review: O=c1[nH]c2ccc([S+]([O-])CCN3CCC(Cc4ccc(F)cc4)CC3)cc2o1 (stereo not shown) [Besonprodil, reference compound] . Reported IC50?
4.75

Entry under review: CCN1CCCC1CNC(=O)c1cc(S(=O)(=O)CC)c(N)cc1OC (stereo not shown) [Amisulpride, reference compound] . Reported IC50?
11.1

Entry under review: CCCCN(CCCC)SN(C)C(=O)Oc1cccc2c1OC(C)(C)C2 . Reported IC50?
0.46

Entry under review: CNC(=C[N+](=O)[O-])NCCSCc1csc(CN(C)C)n1 [Nizatidine, reference compound] . Reported IC50?
7.05

Entry under review: CCCCOc1ccc(C(=O)CCN2CCCCC2)cc1 [Dyclonine HCl, reference compound] . Reported IC50?
17.4

Entry under review: CCOP(=S)(OCC)Oc1cc(C)nc(C(C)C)n1 . Reported IC50?
19

###

target: recombinant human AChE (Homo sapiens); assay: biochemical
Efficacy: recorded values

Entry under review: CCN=C1C=CC(=C(c2ccc(N(CC)CC)cc2)c2ccc(N(CC)CC)cc2)c2ccccc21.Cl [Basic Blue 7] . Reported Efficacy?
-96.089

Entry under review: COc1cc2c(N3CCN(C(=O)Nc4ccc(OC(C)C)cc4)CC3)ncnc2cc1OCCCN1CCCCC1 [Tandutinib, reference compound] . Reported Efficacy?
-82.501

###

target: recombinant human AChE (Homo sapiens); experiment: biochemical; details: potency (IC50), Enzyme
Where a name gives a salt, the structure may show the parent alone.
measuredQuantity: pIC50
In plain terms, pIC50 is the concentration in mol/L turned into minus its base-10 logarithm.

The following compounds have reported results that may help.
compound	measuredQuantity	reportedResult
CNC(=O)O/N=C(\SC)C(=O)N(C)C	pIC50	5.76
CC(=O)Oc1cc(C(C)C)c(OCCN(C)C)cc1C [Moxisylyte hydrochloride, reference compound]	pIC50	4.66
CCOP(=S)(OCC)O/N=C(\C#N)c1ccccc1	pIC50	4.63
Cc1nc(N(C)C)nc(OC(=O)N(C)C)c1C	pIC50	4.90
CCOP(=S)(OCC)Oc1cnc2ccccc2n1	pIC50	4.25

Entry under review: Cc1nc2n(c(=O)c1CCN1CCC(C(=O)c3ccc(F)cc3)CC1)CCS2 [Setoperone, reference compound] . Reported pIC50?
4.85

Entry under review: COc1ccc(C(=O)NCc2ccc(OCCN(C)C)cc2)cc1OC.Cl [Itopride hydrochloride, reference compound] . Reported pIC50?
4.90

Entry under review: CCOP(=S)(OCC)Oc1ccc([N+](=O)[O-])cc1 . Reported pIC50?
4.64

Entry under review: Cl.Clc1cc(Cl)c2c(c1)N=C1CCCCCN1C2 . Reported pIC50?
6.27

Entry under review: CNC(=O)ON=C(CSC)C(C)(C)C . Reported pIC50?
5.72

Entry under review: CNC(=O)O/N=C/C(C)(C)[S+](C)[O-] (stereo not shown) [Aldicarb sulfoxide] . Reported pIC50?
6.39

Entry under review: CN1C(=O)COc2c(C(=O)NC3CN4CCC3CC4)cc(Cl)cc21 (stereo not shown) [Azasetron hydrochloride, reference compound] . Reported pIC50?
5.11

Entry under review: CCCCSP(=O)(SCCCC)SCCCC . Reported pIC50?
4.45

The measured values listed here are drawn from paper PMC8041433.
